B1: glmS ribozyme (parent)
chain: AUAAAAGCGCCAGAACUACAGAAAUGUAGUUGACGAGGAGGAGGUUUAUCGAAUUUUCGGCGGAUGCCUCCAAA

- Variants of: B1
- PROTOCOL SUMMARY: KM; higher = weaker cofactor use; RNA array
- MEASUREMENT CONTEXT: with glucosamine-6-phosphate
Form field: KM (one value per entry).
VALUE KIND: KM (µM)

RESIDUE CHANGE	VALUE KIND	ENDPOINT VALUE
G29C A53C	KM	1380
U54G U57G	KM	1500
U56C	KM	3050
U45G A53G	KM	2020
A42G A48U	KM	3220
A39U A48C	KM	836
A39C G66A	KM	2860
U45A	KM	1680
C16A C68U	KM	878
U31G U55C	KM	1860
G13C A15G U45A	KM	3490
